Molecular target: recombinant human TK2 (Homo sapiens, UniProt O00142)
Sequence (O00142 56-265 limits assumed): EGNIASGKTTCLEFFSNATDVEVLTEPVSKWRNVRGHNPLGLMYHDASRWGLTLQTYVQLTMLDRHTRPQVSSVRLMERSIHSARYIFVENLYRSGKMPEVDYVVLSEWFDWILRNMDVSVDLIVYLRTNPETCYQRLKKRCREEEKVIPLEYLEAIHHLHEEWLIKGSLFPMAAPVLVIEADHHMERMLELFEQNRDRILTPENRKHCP
Experiment: Intrinsic tryptophan fluorescence
Assay type: binding
Settings: dTTP-bound TK2, 2 μM TK2, 21 °C, modified Stern–Volmer equation
OBSERVABLE: Ka (quenching constant of the accessible fraction) (μM^–1)
Write the number in μM^–1 without appending the unit.

# get_value(readout='Ka (quenching constant of the accessible fraction)', item= Nc1ccn([C@H]2C[C@H](O)[C@@H](COP(=O)(O)O)O2)c(=O)n1 [dCMP, deoxycytidine monophosphate] )
0.42

# get_value(readout='Ka (quenching constant of the accessible fraction)', item= Cc1cn([C@H]2C[C@H](O)[C@@H](COP(=O)(O)O)O2)c(=O)[nH]c1=O [dTMP, deoxythymidine monophosphate] )
0.79

# get_value(readout='Ka (quenching constant of the accessible fraction)', item= Cc1cn([C@H]2C[C@H](O)[C@@H](CO)O2)c(=O)[nH]c1=O [dT, thymidine] )
0.16

# get_value(readout='Ka (quenching constant of the accessible fraction)', item= Cc1cn([C@H]2C[C@H](F)[C@@H](CO)O2)c(=O)[nH]c1=O [FLT, 3′-fluoro-2′,3′-dideoxythymidine] )
0.14

Recorded values, source paper PMC6644362.
